experiment: chemical genetic growth profiling, strain panel (AID 1159580);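 note: tested at 20 µM; growth read once vehicle control cultures reached saturation at 30 °C; 1 = growth at the plate median or of vehicle wells; lower values mean less growth of the strain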
condition_summary: S. cerevisiae deletion strains, growth OD, locus YHR030C, strain SLT2
Hit rate of the full screen: of about 5,500 compounds, about 2,000 (36%) were called active. Not shown: some 18% with an inconclusive outcome. Cut-off read from the data, not from the text of the source: active = normalized growth mostly below about 0.91 (no sharp cut-off); inconclusive = no clear call, values can overlap the other calls; inactive = mostly above about 0.92. The list shows a part of the results.
Reply using exactly one outcome from class 1 (active), class 0 (inactive)

Solved cases below.
- FC(F)(F)c1ccc(NC(=S)Nc2ccc(C(F)(F)F)cc2Cl)c(Cl)c1: class 1
- NNC(=S)Nc1cc(C(F)(F)F)ccc1Cl: class 1
- CC(=O)NN(C)c1ccc(C(F)(F)F)cc1[N+](=O)[O-]: class 0

What classification did `N/C(=N/OC(=O)c1ccccc1Cl)c1cccc(CS(=O)(=O)c2ccc(Cl)cc2)c1` end up with in this test?
class 0

What classification did `S=c1nc(-c2ccccc2)[nH][nH]1` end up with in this test?
class 0

What classification did `CCCCCc1ccc(S(=O)(=O)Nc2cccnc2Oc2ccc(Cl)cc2)cc1` end up with in this test?
class 0

What classification did `N#C/C(=N/Nc1ccc(Cl)cc1)C(N)=S` end up with in this test?
class 1

What classification did CC(Oc1ccc(Cl)cc1Cl)C(=O)NNC(=S)Nc1ccccc1 (stereo unspecified) end up with in this test?
class 0

What classification did `CN(NC(=S)Nc1cc(Cl)ccc1Cl)c1ccc(C(F)(F)F)cc1[N+](=O)[O-]` end up with in this test?
class 1

What classification did `NC(=S)Nc1cc(Cl)ccc1Cl` end up with in this test?
class 0

What classification did `CCN(C(=S)Nc1ccc(OC)cc1)c1ccccc1` end up with in this test?
class 0

* * *

experiment: chemical genetic growth profiling, strain panel (AID 1159580);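 note: tested at 20 µM; growth read once vehicle control cultures reached saturation at 30 °C; 1 = growth at the plate median or of vehicle wells; lower values mean less growth of the strain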
condition_summary: S. cerevisiae deletion strains, growth OD, locus YNL298W, strain CLA4, stronger effect = lower value
The campaign covered roughly 5,500 compounds. About 2,000 (36%) were called active. Another 18% or so got no clear call; they are omitted. The list shows a part of the results.
Items are presented alongside their recorded normalized growth.
Write no unit; give the number alone.

Illustrative cases are given below, each with its answer.
• COc1c2occc2cc2ccc(=O)oc12 = 0.933
• CC(=O)N[C@@H](CC(=O)O)C(=O)O = 1.01
• COc1cc2ccc(=O)oc2cc1O = 0.994

Identify normalized growth associated with the compound `Cc1cc(C)nc(NS(=O)(=O)c2ccc(N)cc2)n1`
0.963

Identify normalized growth associated with the compound C[C@]12C=CC(=O)C=C1CCC1C2CC[C@]2(C)C(=O)CCC12 (stereo partly specified)
0.981

Identify normalized growth associated with the compound C[C@]12C=CC(=O)C=C1CCC1C2C(=O)C[C@@]2(C)C1CC[C@]2(O)C(=O)CO (stereo partly specified)
0.982

Identify normalized growth associated with the compound `COc1c2c(cc3occ(-c4ccc5c(c4)OCO5)c(=O)c13)OC(C)(C)C=C2`
0.962

Identify normalized growth associated with the compound `O=c1n(CCCN2CCN(c3cccc(Cl)c3)CC2)nc2ccccn12`
0.999

Identify normalized growth associated with the compound `Cc1cc(O)c2c(c1O)C(=O)c1c(O)cc(C)c(O)c1C2=O`
0.98

Identify normalized growth associated with the compound `COc1ccc2c(=O)c(CC(=O)O)coc2c1`
0.992

* * *

experiment: chemical genetic growth profiling, strain panel (AID 1159580);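 note: tested at 20 µM; growth read once vehicle control cultures reached saturation at 30 °C; 1 = growth at the plate median or of vehicle wells; lower values mean less growth of the strain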
condition_summary: S. cerevisiae deletion strains, growth OD, locus YMR263W, strain SAP30, stronger effect = lower value
The whole screen tested about 5,500 compounds, of which about 2,000 (36%) were called active. Roughly 18% stayed inconclusive and do not appear here. The list shows a part of the results.
Items are presented alongside their recorded normalized growth.
Write no unit; give the number alone.

Identify normalized growth associated with the molecule `CCCN(CCC)[C@@H]1CCc2ccc(O)cc2C1`
0.983

Identify normalized growth associated with the molecule `O=S(=O)(c1ccc(Cl)c(Cl)c1)N1CCN(c2ccc(C(F)(F)F)cn2)CC1`
1.04

Identify normalized growth associated with the molecule `O=C1C=CC(=O)C=C1`
1

Identify normalized growth associated with the molecule `COc1ccc2[nH]cc(CCNC(C)=O)c2c1`
1.01

Identify normalized growth associated with the molecule `Nc1ncnc2nc[nH]c12`
0.932

Identify normalized growth associated with the molecule `COC(=O)c1ccccc1-n1cccc1C(=O)OC`
1.02

Identify normalized growth associated with the molecule `Cc1ccc(S(=O)(=O)Oc2cc(=O)n(C)c3ccccc23)cc1`
0.903

Identify normalized growth associated with the molecule CC1=C2CCC3C(CC[C@]4(C)C(=O)CCC34)[C@@]2(C)CCC1=O (some centres undefined)
0.971

Identify normalized growth associated with the molecule `S=c1[nH]nc(-c2ccco2)n1-c1ccc2c(c1)OCCO2`
1.02

Identify normalized growth associated with the molecule `CC1=CC(C)(C)NC(=S)N1`
1.02
